Documented MCH across a set of molecules
Organism: Rattus norvegicus
assay: Open TG-GATES - Regimen: Daily Repeat
Assay type: toxicity, organism-based, Sprague-Dawley
Set-up: regimen Daily Repeat, gender Male, age 6 weeks
condition.description: in vivo, po, 0 mg/kg, […], tissue Blood, route gavage, dose level Control, time 7 day
# unit: pg | format: bare number

Below are worked cases with known answers.
O=C1CN(/N=C/c2ccc([N+](=O)[O-])o2)C(=O)N1 ... 21.5
C[C@H]1C(=O)O[C@@H]2CCN3CC=C(COC(=O)[C@](C)(O)[C@]1(C)O)[C@H]23 ... 20.8
OCCN1CCN(CCCN2c3ccccc3Sc3ccc(C(F)(F)F)cc32)CC1 ... 21.6
Cc1cccc(C)c1OCC(C)N (centres undefined) ... 20.4
O=[N+]([O-])c1ccc(O)c([N+](=O)[O-])c1 ... 21.5

stdin: Reported MCH for C=C(C)[C@H]1Cc2c(ccc3c2O[C@@H]2COc4cc(OC)c(OC)cc4[C@@H]2C3=O)O1 : what is it?
stdout: 21.1

stdin: Find the recorded MCH belonging to CCOC(=O)C(C)(C)Oc1ccc(Cl)cc1 [CLOFIBRATE] and report it.
stdout: 21.4

stdin: Field request: MCH | item: Cn1cc[nH]c1=S
stdout: 22.3

stdin: Returns the measured MCH for the input molecule. Input: C[C@H]1O[C@H](O[C@H]2[C@H](O)[C@@H](O)[C@@H](O[C@H]3[C@H](O)[C@@H](O)C(O)O[C@@H]3CO)O[C@@H]2CO)[C@H](O)[C@@H](O)[C@@H]1N[C@H]1C=C(CO)[C@@H](O)[C@H](O)[C@H]1O (some centres undefined)
stdout: 21.3

---

Organism: Rattus norvegicus
assay: Open TG-GATES - Regimen: Daily Repeat
Assay type: toxicity, organism-based, Sprague-Dawley
Set-up: regimen Daily Repeat, gender Male, age 6 weeks
condition.description: in vivo, po, 0 mg/kg, […], tissue Plasma, route gavage, dose level Control, time 14 day
Reported AST values follow for various compounds
Answer format: numeric, IU/L implied, no suffix.

In the examples that follow, each entry is paired with its recorded AST.
Cc1cccc(C)c1OCC(C)N (stereo unspecified) ... 68.8
O=C1CN(/N=C/c2ccc([N+](=O)[O-])o2)C(=O)N1 ... 60.6
CCOC(=O)C(C)(C)Oc1ccc(Cl)cc1 [CLOFIBRATE] ... 62
O=[N+]([O-])c1ccc(O)c([N+](=O)[O-])c1 ... 59.6
C[C@H]1C(=O)O[C@@H]2CCN3CC=C(COC(=O)[C@](C)(O)[C@]1(C)O)[C@H]23 ... 68.6

Next compound, AST to be filled in.
stdin: Fill in the blank: the reported AST of Cn1cc[nH]c1=S is ____.
stdout: 71

---

Species: Rattus norvegicus
assay: Open TG-GATES - Regimen: Single
Format: toxicity, organism-based, Sprague-Dawley
Set-up: regimen Single, gender Male, age 6 weeks
condition.description: in vivo, po, 0 mg/kg, 6 h, tissue Kidney, route gavage, dose level Control
Property: KIDNEY_TOTAL; scope: individual compounds
Field: numeric (g). Do not append units.

CCOC(=O)C(C)(C)Oc1ccc(Cl)cc1 [CLOFIBRATE] ... 2

stdin: Given the entry Cc1ccc2cc3c(ccc4ccccc43)c3c2c1CC3 [3-METHYLCHOLANTHRENE] , report its measured KIDNEY_TOTAL.
stdout: 1.8

stdin: Need KIDNEY_TOTAL, item C[C@H]1O[C@H](O[C@H]2[C@H](O)[C@@H](O)[C@@H](O[C@H]3[C@H](O)[C@@H](O)C(O)O[C@@H]3CO)O[C@@H]2CO)[C@H](O)[C@@H](O)[C@@H]1N[C@H]1C=C(CO)[C@@H](O)[C@H](O)[C@H]1O (stereo partly specified) [ACARBOSE]
stdout: 1.9

stdin: Data request, read-out KIDNEY_TOTAL, for Cc1cccc(C)c1OCC(C)N (stereo unspecified) [MEXILETINE]
stdout: 2

stdin: Sample C[C@H]1C(=O)O[C@@H]2CCN3CC=C(COC(=O)[C@](C)(O)[C@]1(C)O)[C@H]23 [MONOCROTALINE] — what was its KIDNEY_TOTAL?
stdout: 1.9

stdin: I'd like to know its KIDNEY_TOTAL. The compound in question is OCCN1CCN(CCCN2c3ccccc3Sc3ccc(C(F)(F)F)cc32)CC1 [FLUPHENAZINE]
stdout: 1.8

---

Species: Rattus norvegicus
assay: Open TG-GATES - Regimen: Single
Format: toxicity, organism-based, Sprague-Dawley
Design: regimen Single, gender Male, age 6 weeks
condition.description: in vivo, po, 0 mg/kg, 3 h, tissue Blood, route gavage, dose level Control
Binary call on Ht: Satisfied from 40% upward, Not satisfied beneath that.

stdin: Decide: Ht of CCOC(=O)C(C)(C)Oc1ccc(Cl)cc1 [CLOFIBRATE] >= 40%?
stdout: Not satisfied

stdin: Answer whether Ht of C[C@H]1O[C@H](O[C@H]2[C@H](O)[C@@H](O)[C@@H](O[C@H]3[C@H](O)[C@@H](O)C(O)O[C@@H]3CO)O[C@@H]2CO)[C@H](O)[C@@H](O)[C@@H]1N[C@H]1C=C(CO)[C@@H](O)[C@H](O)[C@H]1O (stereo partly drawn) [ACARBOSE] is greater than or equal to 40%.
stdout: Satisfied

stdin: Could you verify whether the entry Cn1cc[nH]c1=S [METHIMAZOLE] shows Ht of no less than 40%?
stdout: Not satisfied

stdin: Please check the record C=C(C)[C@H]1Cc2c(ccc3c2O[C@@H]2COc4cc(OC)c(OC)cc4[C@@H]2C3=O)O1 [ROTENONE] and state if its Ht is at or above 40%.
stdout: Not satisfied

stdin: Does Ht meet or surpass 40% for C[C@H]1C(=O)O[C@@H]2CCN3CC=C(COC(=O)[C@](C)(O)[C@]1(C)O)[C@H]23 [MONOCROTALINE] ?
stdout: Not satisfied

---

Organism: Rattus norvegicus
assay: Open TG-GATES - Regimen: Single
Type: toxicity, organism-based, Sprague-Dawley
Design: regimen Single, gender Male, age 6 weeks
condition.description: in vivo, po, 0 mg/kg, 6 h, tissue Plasma, route gavage, dose level Control
Form field: TC (one value per entry).
Give the value in mg/dL but do not write mg/dL after it.

Worked cases, answers included:
C[C@H]1O[C@H](O[C@H]2[C@H](O)[C@@H](O)[C@@H](O[C@H]3[C@H](O)[C@@H](O)C(O)O[C@@H]3CO)O[C@@H]2CO)[C@H](O)[C@@H](O)[C@@H]1N[C@H]1C=C(CO)[C@@H](O)[C@H](O)[C@H]1O (stereo partly drawn) ... 73.4
C[C@H]1C(=O)O[C@@H]2CCN3CC=C(COC(=O)[C@](C)(O)[C@]1(C)O)[C@H]23 ... 75.2

The record that follows has no TC shown yet.
stdin: Please give the measured TC for this compound: C=C(C)[C@H]1Cc2c(ccc3c2O[C@@H]2COc4cc(OC)c(OC)cc4[C@@H]2C3=O)O1
stdout: 81.8

---

Organism: Rattus norvegicus
assay: Open TG-GATES - Regimen: Single
Assay type: toxicity, organism-based, Sprague-Dawley
Design: regimen Single, gender Male, age 6 weeks
condition.description: in vivo, po, 0 mg/kg, 9 h, tissue Blood, route gavage, dose level Control
Quick reference: Ht of the listed items.
API: value field is a number in %; no unit string.

Look over these answered cases.
CCOC(=O)C(C)(C)Oc1ccc(Cl)cc1 [CLOFIBRATE] ... 38.5
Cc1cccc(C)c1OCC(C)N (stereo not drawn) ... 40.1
C[C@H]1O[C@H](O[C@H]2[C@H](O)[C@@H](O)[C@@H](O[C@H]3[C@H](O)[C@@H](O)C(O)O[C@@H]3CO)O[C@@H]2CO)[C@H](O)[C@@H](O)[C@@H]1N[C@H]1C=C(CO)[C@@H](O)[C@H](O)[C@H]1O (stereo partly drawn) ... 40.7
Cc1ccc2cc3c(ccc4ccccc43)c3c2c1CC3 ... 38.9
C=C(C)[C@H]1Cc2c(ccc3c2O[C@@H]2COc4cc(OC)c(OC)cc4[C@@H]2C3=O)O1 ... 39.4

stdin: Tell me the measured Ht of C[C@H]1C(=O)O[C@@H]2CCN3CC=C(COC(=O)[C@](C)(O)[C@]1(C)O)[C@H]23 , please.
stdout: 38.8

stdin: Which value of Ht has been reported for Cn1cc[nH]c1=S in the records?
stdout: 38.7

stdin: Sample O=[N+]([O-])c1ccc(O)c([N+](=O)[O-])c1 — what was its Ht?
stdout: 38.7

---

Species on record: Rattus norvegicus
assay: Open TG-GATES - Regimen: Daily Repeat
Type: toxicity, organism-based, Sprague-Dawley
Set-up: regimen Daily Repeat, gender Male, age 6 weeks
condition.description: in vivo, po, 0 mg/kg, […], tissue Plasma, route gavage, dose level Control, time 7 day
property.label: RALB (g/dL)
Numeric only. Scale: g/dL

Observe how each entry below is paired with its result.
O=C1CN(/N=C/c2ccc([N+](=O)[O-])o2)C(=O)N1 ... 3.5
C[C@H]1O[C@H](O[C@H]2[C@H](O)[C@@H](O)[C@@H](O[C@H]3[C@H](O)[C@@H](O)C(O)O[C@@H]3CO)O[C@@H]2CO)[C@H](O)[C@@H](O)[C@@H]1N[C@H]1C=C(CO)[C@@H](O)[C@H](O)[C@H]1O (some centres undefined) ... 2.7
C=C(C)[C@H]1Cc2c(ccc3c2O[C@@H]2COc4cc(OC)c(OC)cc4[C@@H]2C3=O)O1 ... 3.9
Cn1cc[nH]c1=S ... 3
OCCN1CCN(CCCN2c3ccccc3Sc3ccc(C(F)(F)F)cc32)CC1 ... 3.9

stdin: Please look up its RALB: O=[N+]([O-])c1ccc(O)c([N+](=O)[O-])c1
stdout: 3.8

stdin: So what does the record say about RALB for C[C@H]1C(=O)O[C@@H]2CCN3CC=C(COC(=O)[C@](C)(O)[C@]1(C)O)[C@H]23 ?
stdout: 3.1

stdin: // lookup RALB for CCOC(=O)C(C)(C)Oc1ccc(Cl)cc1 [CLOFIBRATE]
stdout: 3.6

stdin: I am curious: what RALB value has been reported for Cc1cccc(C)c1OCC(C)N (centres undefined) ?
stdout: 3

Data origin, for the record: ChEMBL document CHEMBL3885861
